- TARGET OR SYSTEM: α-synuclein (α-syn) aggregates in PD brain homogenates (Homo sapiens, UniProt P37840)
- Construct: Anterior cingulate cortex tissue from a Parkinson’s disease (PD) case; tissue Banner Sun Health Research Institute (Dr. Thomas Beach); host or cells: post-mortem human PD anterior cingulate cortex homogenate
- PROCEDURE TEXT: Two point screening assay (30 nM and 300 nM) vs [3H]asyn-44 in human PD brain homogenates
- Format: binding
- CONDITION CONTEXT: 30 nM competitor
Cut-off 60% on % [3H]asyn-44 remaining at 30 nM: below means T, at or above means F.

> print(dat)
                                    molecule                          target.or.system  answer.label
 1  FC1CCN(c2cc(Cl)ncc2-c2ccc3sc(-c4cccnc4)cc3n2)C1 (stereo not shown)  α-synuclein (α-syn) aggregates in PD brain homogenates (Homo sapiens, UniProt P37840)             F
 2  Cn1cnc(N2Cc3nc(-c4ccc(N5CCC(F)C5)nc4)ccc3C2=O)c1 (stereo not shown)  α-synuclein (α-syn) aggregates in PD brain homogenates (Homo sapiens, UniProt P37840)             F
 3  FC1CCC(c2cnc(-n3cc4sccc4n3)cn2)C1 (stereo not shown)  α-synuclein (α-syn) aggregates in PD brain homogenates (Homo sapiens, UniProt P37840)             F
 4  FC1CCN(c2ccnc(-n3cc4sc(-c5cccnc5)cc4n3)n2)CC1  α-synuclein (α-syn) aggregates in PD brain homogenates (Homo sapiens, UniProt P37840)             T
 5  FC1CCN(c2cc(-n3cc4sc(-c5cccnc5)cc4n3)ncn2)CC1  α-synuclein (α-syn) aggregates in PD brain homogenates (Homo sapiens, UniProt P37840)             T
 6  FC1CCN(c2cnc(-c3ccc4sc(-c5cccnc5)cc4n3)cn2)C1 (stereo not shown)  α-synuclein (α-syn) aggregates in PD brain homogenates (Homo sapiens, UniProt P37840)             T
 7       FC1CCN(c2cnc(-c3ccc4sccc4n3)cn2)CC1  α-synuclein (α-syn) aggregates in PD brain homogenates (Homo sapiens, UniProt P37840)             F
 8  Cn1ccc(-c2cc3c(cnn3-c3cc(N4CCC(F)CC4)ncn3)s2)n1  α-synuclein (α-syn) aggregates in PD brain homogenates (Homo sapiens, UniProt P37840)             F
 9  FC1CCN(c2ccc(-c3csc4ccc(-c5cccnc5)nc34)cn2)C1 (stereo not shown)  α-synuclein (α-syn) aggregates in PD brain homogenates (Homo sapiens, UniProt P37840)             T
10  Cn1ccc(-c2cc3nn(-c4cnc(N5CCC(F)C5)cn4)cc3s2)n1 (stereo not shown)  α-synuclein (α-syn) aggregates in PD brain homogenates (Homo sapiens, UniProt P37840)             T
11  Cn1ccc(-c2cc3nn(-c4nccc(N5CCC(F)CC5)n4)cc3s2)n1  α-synuclein (α-syn) aggregates in PD brain homogenates (Homo sapiens, UniProt P37840)             T
12  FC1CCN(c2ccc(-c3cc4nc(-c5cccnc5)ccc4s3)cn2)C1 (stereo not shown)  α-synuclein (α-syn) aggregates in PD brain homogenates (Homo sapiens, UniProt P37840)             F
13  FC1CCN(c2ccc(-c3ccc4scc(Br)c4n3)cn2)C1 (stereo not shown)  α-synuclein (α-syn) aggregates in PD brain homogenates (Homo sapiens, UniProt P37840)             T
14  Cn1ccc(N2Cc3nc(-c4ccc(N5CCC(F)C5)nc4)ccc3C2=O)n1 (stereo not shown)  α-synuclein (α-syn) aggregates in PD brain homogenates (Homo sapiens, UniProt P37840)             F
15  Cn1ccc(-c2cc3nn(-c4cc(N5CCC(F)CC5)ncn4)cc3s2)n1  α-synuclein (α-syn) aggregates in PD brain homogenates (Homo sapiens, UniProt P37840)             T
16  FC1CCN(c2cc(-n3ncc4sc(-c5cccnc5)cc43)ncn2)C1 (stereo not shown)  α-synuclein (α-syn) aggregates in PD brain homogenates (Homo sapiens, UniProt P37840)             F
17  F[C@@H]1CCN(c2cnc(-c3ccc4sc(-c5cncs5)cc4n3)cn2)C1  α-synuclein (α-syn) aggregates in PD brain homogenates (Homo sapiens, UniProt P37840)             T
18  O=C1c2ccc(-c3ccc(N4CCC(F)C4)nc3)nc2CN1c1cccnc1 (stereo not shown)  α-synuclein (α-syn) aggregates in PD brain homogenates (Homo sapiens, UniProt P37840)             F
19  Cn1ccc(-c2cc3c(cnn3-c3nccc(N4CCC(F)CC4)n3)s2)n1  α-synuclein (α-syn) aggregates in PD brain homogenates (Homo sapiens, UniProt P37840)             F
20  FC1CCN(c2ccnc(-n3cc4sc(-c5cccnc5)cc4n3)n2)C1 (stereo not shown)  α-synuclein (α-syn) aggregates in PD brain homogenates (Homo sapiens, UniProt P37840)             T
21  FC1CCN(c2ccnc(-n3ncc4sc(-c5cccnc5)cc43)n2)C1 (stereo not shown)  α-synuclein (α-syn) aggregates in PD brain homogenates (Homo sapiens, UniProt P37840)             T
22  Cn1ccc(-c2cc3nc(-c4cnc(N5CCC(F)C5)cn4)ccc3s2)n1 (stereo not shown)  α-synuclein (α-syn) aggregates in PD brain homogenates (Homo sapiens, UniProt P37840)             F
23  FC1CCN(c2cnc(-n3cc4sc(-c5cncs5)cc4n3)cn2)C1 (stereo not shown)  α-synuclein (α-syn) aggregates in PD brain homogenates (Homo sapiens, UniProt P37840)             T
24  Cn1ccc(-c2cc3nc(-c4ccc(N5CCC(F)C5)nc4)ccc3s2)n1 (stereo not shown)  α-synuclein (α-syn) aggregates in PD brain homogenates (Homo sapiens, UniProt P37840)             F
25  Cn1ccc(-c2cc3nn(-c4ccc(N5CCC(F)C5)nn4)cc3s2)n1 (stereo not shown)  α-synuclein (α-syn) aggregates in PD brain homogenates (Homo sapiens, UniProt P37840)             F
26  COc1cncc(-c2cc3nc(-c4cnc(N5CCC(F)C5)cn4)ccc3s2)c1 (stereo not shown)  α-synuclein (α-syn) aggregates in PD brain homogenates (Homo sapiens, UniProt P37840)             T
27  CC1CCN(c2ncc(-c3ccc4sc(-c5cccnc5)cc4n3)cc2F)C1 (stereo not shown)  α-synuclein (α-syn) aggregates in PD brain homogenates (Homo sapiens, UniProt P37840)             F
28  Cn1ccc(N2Cc3nc(-c4cnc(N5CCC(F)C5)cn4)ccc3C2=O)n1 (stereo not shown)  α-synuclein (α-syn) aggregates in PD brain homogenates (Homo sapiens, UniProt P37840)             T
29  Cn1ccc(-c2csc3ccc(-c4ccc(N5CCC(F)C5)nc4)nc23)n1 (stereo not shown)  α-synuclein (α-syn) aggregates in PD brain homogenates (Homo sapiens, UniProt P37840)             F
30  Cn1ccc(-c2cc3nc(-c4cnc(N5CCC(F)CC5)cn4)ccc3s2)n1  α-synuclein (α-syn) aggregates in PD brain homogenates (Homo sapiens, UniProt P37840)             T
31  FC1CCN(c2cnc(-c3ccc4sccc4n3)cn2)C1 (stereo not shown)  α-synuclein (α-syn) aggregates in PD brain homogenates (Homo sapiens, UniProt P37840)             T

====

- TARGET OR SYSTEM: α-synuclein (α-syn) aggregates in PD brain homogenates (Homo sapiens)
- Construct: Anterior cingulate cortex tissue from a Parkinson’s disease (PD) case; tissue Banner Sun Health Research Institute (Dr. Thomas Beach); host or cells: post-mortem human PD anterior cingulate cortex homogenate
- PROCEDURE TEXT: Two point screening assay (30 nM and 300 nM) vs [3H]asyn-44 in human PD brain homogenates
- Type: binding
- CONDITION CONTEXT: 300 nM competitor
METRIC NAME: % [3H]asyn-44 remaining at 300 nM (%)

> print(dat)
                                   molecule                          target.or.system                        metric.name  recorded.measurement
1  Cn1ccc(-c2cc3nc(-c4ccc(N5CCC(F)C5)nc4)ccc3s2)n1 (stereo not drawn) [LMD-005]  α-synuclein (α-syn) aggregates in PD brain homogenates (Homo sapiens)  % [3H]asyn-44 remaining at 300 nM                    64
2  CC1CCN(c2ncc(-c3ccc4sc(-c5cccnc5)cc4n3)cc2F)C1 (stereo not drawn) [LMD-001]  α-synuclein (α-syn) aggregates in PD brain homogenates (Homo sapiens)  % [3H]asyn-44 remaining at 300 nM                    39
3  Cn1ccc(N2Cc3nc(-c4ccc(N5CCC(F)C5)nc4)ccc3C2=O)n1 (stereo not drawn) [LMD-016]  α-synuclein (α-syn) aggregates in PD brain homogenates (Homo sapiens)  % [3H]asyn-44 remaining at 300 nM                    48
4  FC1CCN(c2cnc(-c3ccc4sccc4n3)cn2)C1 (stereo not drawn) [LMD-039]  α-synuclein (α-syn) aggregates in PD brain homogenates (Homo sapiens)  % [3H]asyn-44 remaining at 300 nM                    27
5  Cn1ccc(-c2cc3c(cnn3-c3ccc(N4CCC(F)C4)nn3)s2)n1 (stereo not drawn) [LMD-072]  α-synuclein (α-syn) aggregates in PD brain homogenates (Homo sapiens)  % [3H]asyn-44 remaining at 300 nM                    33
6  Cn1ccc(-c2csc3ccc(-c4ccc(N5CCC(F)C5)nc4)nc23)n1 (stereo not drawn) [LMD-063]  α-synuclein (α-syn) aggregates in PD brain homogenates (Homo sapiens)  % [3H]asyn-44 remaining at 300 nM                    33

Where these numbers come from: paper PMC12523303
